Molecular target: VEGF165 (recombinant human vascular endothelial growth factor, 165 aa form) (Homo sapiens, UniProt P15692-4 P15692-4:27-191)
Sequence (P15692 other isoform, or with tags, fused parts or gaps): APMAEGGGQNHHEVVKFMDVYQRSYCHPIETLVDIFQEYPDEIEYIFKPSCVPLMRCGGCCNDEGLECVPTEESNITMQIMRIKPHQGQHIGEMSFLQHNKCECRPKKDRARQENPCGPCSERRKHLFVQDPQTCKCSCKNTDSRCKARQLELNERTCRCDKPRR
Test: filter
Settings: tags: gift from N. Ferrara, Genentech; chain copies: 2 (dimer, stated)
quantity.kind: pKd
// returns pKd (minus log10 of molar concentration), number only

The following binders have reported results that may help.
-- ask Bench note: what pKd did TTTTACCCUGAUGGUAGACGCCGGGGUGTTTTT (mixed, as NX-213 plus internal phosphorothioate between A7 and U8) [NX-215] show?
-- reply 9.70

-- ask Subsequent entry: ACCCUGAUGGUAGACGCCGGGGUG (ssRNA, modified variant of NX-107 (position code lost in text)) [NX-176]
-- reply 7.19

-- ask Subsequent entry: TTTTACCCUGAUGGUAGACGCCGGGGUGTTTTT (mixed, all 2'-OMe core; 5' and 3' phosphorothioate thymidine caps) [NX-191]
-- reply 6.92

-- ask Subsequent entry: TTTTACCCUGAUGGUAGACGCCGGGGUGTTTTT (mixed, 2'-NH2/2'-OMe variant (position code lost in text); 5' and 3' phosphorothioate thymidine caps) [NX-214]
-- reply 9.70

-- ask Subsequent entry: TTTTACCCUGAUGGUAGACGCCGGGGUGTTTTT (mixed, 2'-NH2 pyrimidines; 5' T*T*T*T* and 3' T*T*T*T*T phosphorothioate thymidine caps) [NX-178]
-- reply 9.15

Note: attention shifts to another entry.
-- ask Bench note: what pKd did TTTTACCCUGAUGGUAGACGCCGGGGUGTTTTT (mixed, 2'-NH2 pyrimidines; all purines 2'-OMe except four; 5' and 3' phosphorothioate thymidine caps) [NX-213] show?
-- reply 9.70
